biological target: human DGKα (Homo sapiens (Human)); experiment: DGKα Biochemical Activity Assay (ADP-Glo); details: recombinant DGKα 1 nM, 100 μM ATP, 18:1 DAG/POPS/octylglucoside micelles, 1 hour at 25° C.; geometric mean; read-out: HTBS DGKa 1X ATP KM IC50
pIC50: −log10 of the molar value.
readout-kind: pIC50

Below: 4 compounds and their reported pIC50.
Ask: Lab request: please report pIC50 under test system human DGKα (Homo sapiens (Human)) for Cc1nnc2nc(N3CCOCc4c(C#CC5(C)CC5)cccc43)c3ccc(C(F)(F)F)nc3n12
Reply: 7.94

Ask: What pIC50 appears in the records for this compound with human DGKα (Homo sapiens (Human))? Cc1nnc2nc(N3CCCOc4c(Br)cccc43)c3c(F)cncc3n12
Reply: 6.45

Ask: Provide the documented pIC50 with human DGKα (Homo sapiens (Human)) as the system for CC1(C#Cc2cccc3c2CCCN3c2nc3nncn3c3cccnc23)CC1
Reply: 7.77

Ask: Record lookup: for human DGKα (Homo sapiens (Human)), what pIC50 belongs to CNc1ccc2c(N(C)c3cccc(-c4ccc(OC)nc4)c3)nc3nncn3c2n1 ?
Reply: 6.41

a: CN(c1cccc(-c2ccc(C(F)F)cc2)c1)c1nc2nncn2c2nc(N)ccc12
b: CN(c1cccc(-c2ccc(C3CC3)cc2)c1)c1nc2nncn2c2nc(N)ccc12
Ask: Please indicate which item has the smaller measured pIC50: a versus b Give the label of your selection.
Reply: a
(a: 7.94, b: 8.14)

###

target: human DGKα (Homo sapiens (Human)); assay: DGKα Biochemical Activity Assay (ADP-Glo); conditions: recombinant DGKα 1 nM, 100 μM ATP, 18:1 DAG/POPS/octylglucoside micelles, 1 hour at 25° C.; geometric mean; read-out: HTBS DGKa 1X ATP KM IC50
readout-kind: IC50 (nM)

Guide cases for IC50, answers given:
Ask: What IC50 value was documented for this compound, Cc1nnc2nc(N3CCCc4c3ccnc4C#CC(C)(C)C#N)c3c(F)cncc3n12 [Example 31] ?
Reply: 72.3

Ask: // query IC50 value for entry CN(c1cc(F)cc(C#CC(C)(C)C)c1)c1nc2nnnn2c2ccc(F)cc12 [Example 15]
Reply: 42.9

Ask: For the compound shown here, Cc1nnc2nc(N3CCCOc4c(C#CC5CC5)cccc43)c3c(F)cncc3n12 [Example 74] , give the reported IC50.
Reply: 2.29

Ask: Report IC50 for Cc1nnc2nc(N3CCCCc4c(C#CC(C)(C)O)cccc43)c3c(F)cncc3n12 [Example 66] please.
Reply: 6.14

Ask: Need IC50 of Cc1ccc2c(N(C)c3cccc(-c4ccc(C(F)F)cc4)c3)nc3nncn3c2n1 [Example 124] , thanks.
Reply: 12.3

P: Cc1nnc2nc(N(CC(F)F)c3cc(F)cc(C#CC4(C(F)F)CC4)c3)c3cc(F)cnc3n12 [Example 105]
Q: Cc1nnc2nc(N(CC(F)F)c3cc(F)cc(C#CC(C)(C)O)c3)c3ncccc3n12 [Example 17]
Ask: Please let me know which one, P or Q , has a lower measured IC50 value. // return label of chosen record
Reply: P

###

Biological target: human DGKα (Homo sapiens (Human))
Test: DGKα Biochemical Activity Assay (ADP-Glo)
Settings: recombinant DGKα 1 nM, 100 μM ATP, 18:1 DAG/POPS/octylglucoside micelles, 1 hour at 25° C.; geometric mean; read-out: HTBS DGKa 1X ATP KM IC50
Source text: Alternatively, the enzymatic activity of human DGKα was monitored in a biochemical assay in the presence or absence of compounds and using micelles containing 18:1 Diacylglycerol (DAG), 16:0-18:1 PS (POPS) and Octylglucoside as substrate. DGKα activity led to conversion of DAG and ATP to Phosphatidic Acid (PA) and ADP. Levels of ADP were monitored by bioluminescence using the ADP-Glo Kinase Assay (Promega) and were indicative of DGKα activity. […]
pIC50: −log10 of the molar value.
readout-kind: pIC50

// below: answered molecules
Ask: Sample CC(C)(C#Cc1cccc2c1CCCN2c1nc2nncn2c2cncc(F)c12)C(F)(F)F — what was its pIC50?
Reply: 7.97

Ask: Please give the measured pIC50 for this molecule: CNc1ccc2c(N(C)c3cccc(C#CC(C)(C)C)c3)nc3nncn3c2n1
Reply: 6.98

1: CC(C)(C)C#Cc1cc(F)cc(N(CC(F)F)c2nc3nncn3c3cncc(F)c23)c1
2: Cc1nnc2nc(N3CCOCc4c(C#CC5CC5)cccc43)c3c(F)cncc3n12
Ask: Just tell me: smaller pIC50 value, 1 or 2 ? Please indicate the selected item by its label.
Reply: 1
(1: 7.49, 2: 8.77)

I: Cc1ccc2c(N(C)c3cccc(C#CC(C)(C)C)c3)nc3nncn3c2n1
II: Cc1nnc2nc(N3CCCCc4c(C#CC5(C(C)(F)F)CC5)cccc43)c3c(F)cncc3n12
III: Cc1nnc2nc(N(CC(F)F)c3cc(F)cc(C#CC4(C)CC4)c3)c3cc(F)cnc3n12
Ask: hey, can you rank those molecules up there by pIC50? biggest number first please Labels, ranked as asked.
Reply: III, II, I
(III: 7.84, II: 7.64, I: 7.37)

1: CN(c1cccc(C#CC(C)(C)O)c1)c1nc2nncn2c2ncc(F)cc12
2: Cc1nnc2nc(N3CCCc4c(C#Cc5cnn(C)c5)cccc43)c3ccc(C(F)(F)F)nc3n12
Ask: Kindly compare 1 with 2 and tell me which has the lower pIC50 figure. Your answer should be the label attached to the chosen record.
Reply: 2
(2: 7.32, 1: 7.53)

a: CN(c1cccc(-c2ccc(C3CC3)cc2)c1)c1nc2nncn2c2cnccc12
b: COc1ccc2c(N(C)c3cccc(C#CC(C)(C)C)c3)nc3nncn3c2n1
c: Cc1nnc2nc(N3CCCCc4c(C#CC5CC5)cccc43)c3c(F)cncc3n12
d: Cc1nnc2nc(N3CCCc4c(C#CC5(C(F)(F)F)CC5)cccc43)c3ccc(C(F)(F)F)nc3n12
e: CC(C)(O)C#Cc1cccc2c1CCCN2c1nc2nncn2c2cncc(F)c12
Ask: Please rank these molecules by pIC50 in descending order. Answer by naming the labels in the order asked.
Reply: c, e, a, b, d
(c: 8.12, e: 7.87, a: 7.64, b: 6.99, d: 6.15)

###

Molecular target: human DGKα (Homo sapiens (Human), UniProt P23743)
Sequence (P23743 whole entry): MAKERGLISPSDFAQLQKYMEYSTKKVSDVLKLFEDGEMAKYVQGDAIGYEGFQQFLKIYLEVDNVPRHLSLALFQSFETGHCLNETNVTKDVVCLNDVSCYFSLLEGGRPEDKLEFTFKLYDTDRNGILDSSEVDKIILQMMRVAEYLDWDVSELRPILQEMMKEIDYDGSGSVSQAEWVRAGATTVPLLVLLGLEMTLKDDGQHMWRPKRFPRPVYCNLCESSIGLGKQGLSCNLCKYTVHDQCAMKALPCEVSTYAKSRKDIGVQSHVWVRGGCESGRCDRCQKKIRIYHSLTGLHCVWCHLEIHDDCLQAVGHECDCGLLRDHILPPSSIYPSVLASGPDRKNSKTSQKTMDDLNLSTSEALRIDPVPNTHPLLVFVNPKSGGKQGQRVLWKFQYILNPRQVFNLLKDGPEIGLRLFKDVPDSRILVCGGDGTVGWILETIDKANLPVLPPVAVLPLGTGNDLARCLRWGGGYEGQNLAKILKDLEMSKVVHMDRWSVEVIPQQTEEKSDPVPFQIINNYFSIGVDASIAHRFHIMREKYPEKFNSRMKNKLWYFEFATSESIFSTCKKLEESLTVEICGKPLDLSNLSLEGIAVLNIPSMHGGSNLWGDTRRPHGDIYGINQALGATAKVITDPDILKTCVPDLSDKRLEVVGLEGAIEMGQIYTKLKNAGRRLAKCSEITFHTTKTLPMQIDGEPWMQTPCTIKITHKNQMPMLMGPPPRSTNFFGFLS
Experiment: DGKα Biochemical Activity Assay (ADP-Glo)
Conditions: recombinant DGKα 1 nM, 100 μM ATP, 18:1 DAG/POPS/octylglucoside micelles, 1 hour at 25° C.; geometric mean; read-out: HTBS DGKa 1X ATP KM IC50
Text: Alternatively, the enzymatic activity of human DGKα was monitored in a biochemical assay in the presence or absence of compounds and using micelles containing 18:1 Diacylglycerol (DAG), 16:0-18:1 PS (POPS) and Octylglucoside as substrate. DGKα activity led to conversion of DAG and ATP to Phosphatidic Acid (PA) and ADP. Levels of ADP were monitored by bioluminescence using the ADP-Glo Kinase Assay (Promega) and were indicative of DGKα activity. […]
pIC50: −log10 of the molar value.
readout-kind: pIC50

I: Cc1ccc2c(N(C)c3cccc(-c4ccc(C5CC5)cc4)c3)nc3nncn3c2n1
II: Cc1nnc2nc(N3CCCc4c(C#CC5(C)CC5)cccc43)c3ncccc3n12
III: CN(c1cc(F)cc(C#CC2(C(F)(F)F)CC2)c1)c1nc2cncn2c2cc(Cl)ccc12
Ask: Sort low-to-high on pIC50, please. Use the labels to give the requested order.
Reply: III, II, I

a: CN(c1cccc(-c2ccc(S(F)(F)(F)(F)F)cc2)c1)c1nc2nncn2c2nc(N)ccc12
b: COc1ccc2c(N(C)c3cccc(-c4ccc(C(F)F)cc4)c3)nc3nnc(C)n3c2n1
Ask: Param metric = pIC50; output whichever of a , b has the minimum value. Use the label to indicate which entry you chose.
Reply: b

P: Cc1nnc2nc(N3CCCOc4c(C#CC5(C(F)(F)F)CC5)cccc43)c3c(F)cncc3n12
Q: Cc1nnc2nc(N3CCOCc4c(C#CC5(C)CC5)cccc43)c3c(F)cncc3n12
R: CCC(C)(O)C#Cc1cccc2c1CCCN2c1nc2nncn2c2ncc(F)cc12 (centres unmarked)
S: CC(C)(O)C#Cc1cc(F)cc(N(CC(F)F)c2nc3nncn3c3cccnc23)c1
T: CC(C)(O)C#Cc1cc(F)cc(N(CC(F)F)c2nc3nncn3c3cncc(F)c23)c1
Ask: List these items ordered by pIC50, big to small. API: response body holds the labels in the requested order.
Reply: Q, P, R, T, S
(Q: 8.64, P: 8.13, R: 7.86, T: 7.45, S: 7.17)

P: Cc1nnc2nc(N3CCCc4c(C#CC5(C)CC5)cccc43)c3c(F)cncc3n12
Q: Fc1cc(C#CC2(C(F)(F)F)CC2)cc(N(CC(F)F)c2nc3nncn3c3cccnc23)c1
Ask: Determine, for P and Q , which has the greater value of pIC50. In your reply, give the label of the chosen option.
Reply: P
(P: 8.10, Q: 7.14)
